# Tested on: B. cepacia ATCC 25416
# test.details: Broth microdilution MIC, ATCC strains
# Assay type: cell-based
# measurement.context: Burkholderia cepacia, ATCC25416; B. cepacia ATCC 25416; read-out: MIC (growth inhibition, microdilution method)
# Procedure: All clinical isolates tested were from The North American Urinary Tract Infection Collaborative Alliance (NAUTICA) which is a UTI surveillance study involving 40 medical centres (30 from the US and 10 from Canada). […] Susceptibilities to the compounds were determined using the National Committee for Clinical Laboratory Standards (NCCLS) M7-A6 broth microdilution method. […] Panels were read following 16 to 20 hours of incubation at 35° C. in ambient air. […]
readout.type: MIC (µg/mL)
Value expressed in µg/mL; do not type the unit.

Here are 3 molecules together with their reported answers.
* COC(=O)c1cc(-c2nnn(C)n2)c(C(=O)OC)s1 | 64
* Cn1nnnc1-c1cc(C(=O)O)sc1C(=O)O | 8
* COC(=O)c1cc(-c2nnnn2C)c(C(=O)OC)s1 | 8

Now examine the next entry.
Please report MIC for the following molecule: O=C(O)c1cc(-c2nnn[nH]2)c(C(=O)O)s1
64

====

# System: C. koseril clinical isolates
# test.details: Broth microdilution MIC, clinical isolate strains (NAUTICA)
# Type: cell-based
# measurement.context: Table 4B; each table row is one clinical isolate; unit assumed
readout.type: MIC, C. KOSERI

* O=C(O)c1sc(-c2ccc(F)cc2)cc1-c1nnn[nH]1 | > 16 µg/mL

Please report MIC, C. KOSERI for the following compound: Cn1nnnc1-c1cc(-c2ccc(F)cc2)sc1C(=O)O
> 8 µg/mL

Please report MIC, C. KOSERI for the following compound: COC(=O)c1sc(-c2ccc(F)cc2)cc1-c1nnn(C)n1
> 8 µg/mL

Please report MIC, C. KOSERI for the following compound: CCOC(=O)c1cc(-c2nnn(C)n2)c(-c2ccc(F)cc2)s1
> 16 µg/mL

Please report MIC, C. KOSERI for the following compound: COC(=O)c1sc(-c2ccc(F)cc2)cc1-c1nnnn1C
> 4 µg/mL

====

# maps each entry to its MIC, S. MALTOPHILIA
# Test system: S. maltophilia clinical isolates
# test.details: Broth microdilution MIC, clinical isolate strains (NAUTICA)
# Format: cell-based
# measurement.context: Table 4B; each table row is one clinical isolate; unit assumed

- Fc1ccc(-c2cc(-c3nnn[nH]3)c(-c3ccc(F)cc3)s2)cc1 [DNM-131]: > 32 µg/mL
- Cn1nnc(-c2cc(-c3ccc(F)cc3)sc2C(=O)O)n1 [DNM-142]: > 16 µg/mL
- COC(=O)c1sc(-c2ccc(F)cc2)cc1-c1nnnn1C [DNM-145]: > 4 µg/mL
- CCOC(=O)c1cc(-c2nnn(C)n2)c(-c2ccc(F)cc2)s1 [DNM-125]: > 16 µg/mL
- Cn1nnnc1-c1cc(-c2ccc(F)cc2)sc1C(=O)O [DNM-143]: > 8 µg/mL

Please report MIC, S. MALTOPHILIA for the following compound: Cn1nnnc1-c1cc(-c2ccc(F)cc2)sc1-c1ccc(F)cc1 [DNM-133]
> 16 µg/mL

Please report MIC, S. MALTOPHILIA for the following compound: O=C(O)c1sc(-c2ccc(F)cc2)cc1-c1nnn[nH]1 [DNM-141]
> 16 µg/mL

Please report MIC, S. MALTOPHILIA for the following compound: COC(=O)c1sc(-c2ccc(F)cc2)cc1-c1nnn(C)n1 [DNM-144]
> 8 µg/mL

Please report MIC, S. MALTOPHILIA for the following compound: Cn1nnc(-c2cc(-c3ccc(F)cc3)sc2-c2ccc(F)cc2)n1 [DNM-132]
> 16 µg/mL

====

# Tested on: S. aureus ATCC 29213
# test.details: Broth microdilution MIC, ATCC strains
# Format: cell-based
# measurement.context: Staphylococcus aureus, ATCC29213, S. aureus ATCC 29213; read-out: MIC (growth inhibition, microdilution method)
# maps each entry to its MIC

- CCOC(=O)c1cc(-c2nnn(C)n2)c(-c2ccc(F)cc2)s1: > 16 µg/mL
- Cn1nnnc1-c1cc(-c2ccc(F)cc2)sc1-c1ccc(F)cc1: > 16 µg/mL
- Cn1nnnc1-c1cc(C(=O)O)sc1C(=O)O: 32 µg/mL
- COC(=O)c1sc(-c2ccc(F)cc2)cc1-c1nnnn1C: > 4 µg/mL
- O=C(O)c1cc(-c2nnn[nH]2)c(-c2ccc(F)cc2)s1: 64 µg/mL

Please report MIC for the following molecule: O=C(O)c1cc(-c2nn[nH]n2)cs1
32 µg/mL

Please report MIC for the following molecule: Cn1nnc(-c2cc(-c3ccc(F)cc3)sc2C(=O)O)n1
> 16 µg/mL

Please report MIC for the following molecule: Cn1nnc(-c2cc(C(=O)O)sc2-c2ccc(F)cc2)n1
> 8 µg/mL

Please report MIC for the following molecule: Cn1nnc(-c2cc(-c3ccc(F)cc3)sc2-c2ccc(F)cc2)n1
> 16 µg/mL

Please report MIC for the following molecule: O=C(O)c1sc(-c2ccc(F)cc2)cc1-c1nnn[nH]1
> 16 µg/mL

Please report MIC for the following molecule: Cn1nnnc1-c1cc(-c2ccc(F)cc2)sc1C(=O)O
> 8 µg/mL

====

# System: C. freundii clinical isolates
# test.details: Broth microdilution MIC, clinical isolate strains (NAUTICA)
# Format: cell-based
# measurement.context: Table 4B; each table row is one clinical isolate; in µg/mL (unit assumed)
readout.type: MIC, C. FREUNDII

* Cn1nnc(-c2cc(-c3ccc(F)cc3)sc2C(=O)O)n1 [DNM-142] | >16

Please report MIC, C. FREUNDII for the following molecule: Fc1ccc(-c2cc(-c3nnn[nH]3)c(-c3ccc(F)cc3)s2)cc1 [DNM-131]
>32

Please report MIC, C. FREUNDII for the following molecule: Cn1nnnc1-c1cc(-c2ccc(F)cc2)sc1C(=O)O [DNM-143]
>8

Please report MIC, C. FREUNDII for the following molecule: Cn1nnc(-c2cc(-c3ccc(F)cc3)sc2-c2ccc(F)cc2)n1 [DNM-132]
>16

Please report MIC, C. FREUNDII for the following molecule: COC(=O)c1sc(-c2ccc(F)cc2)cc1-c1nnnn1C [DNM-145]
>4

Please report MIC, C. FREUNDII for the following molecule: COC(=O)c1sc(-c2ccc(F)cc2)cc1-c1nnn(C)n1 [DNM-144]
>8

====

# Test system: S. liquifaciens clinical isolates
# test.details: Broth microdilution MIC, clinical isolate strains (NAUTICA)
# Type: cell-based
# measurement.context: Table 4B; each table row is one clinical isolate; unit assumed
readout.type: MIC, S. LIQUEFACIENS

- Cn1nnc(-c2cc(-c3ccc(F)cc3)sc2-c2ccc(F)cc2)n1: > 16 µg/mL
- O=C(O)c1sc(-c2ccc(F)cc2)cc1-c1nnn[nH]1: > 16 µg/mL
- COC(=O)c1sc(-c2ccc(F)cc2)cc1-c1nnnn1C: > 4 µg/mL
- Cn1nnnc1-c1cc(-c2ccc(F)cc2)sc1-c1ccc(F)cc1: > 16 µg/mL
- Fc1ccc(-c2cc(-c3nnn[nH]3)c(-c3ccc(F)cc3)s2)cc1: > 32 µg/mL
- CCOC(=O)c1cc(-c2nnn(C)n2)c(-c2ccc(F)cc2)s1: > 16 µg/mL
- Cn1nnnc1-c1cc(-c2ccc(F)cc2)sc1C(=O)O: > 8 µg/mL
- COC(=O)c1sc(-c2ccc(F)cc2)cc1-c1nnn(C)n1: > 8 µg/mL

Now examine the next entry.
Please report MIC, S. LIQUEFACIENS for the following compound: Cn1nnc(-c2cc(-c3ccc(F)cc3)sc2C(=O)O)n1
> 16 µg/mL

====

# System: K. pneumoniae clinical isolates
# test.details: Broth microdilution MIC, clinical isolate strains (NAUTICA)
# Type: cell-based
# measurement.context: clinical isolates, one table line per isolate; unit assumed
# maps each entry to its MIC, K. PNEUMONIAE
Value expressed in µg/mL; do not type the unit.

* COC(=O)c1cc(-c2nnn(C)n2)c(C(=O)OC)s1 | 128
* O=C(O)c1cc(-c2nnn[nH]2)c(-c2ccc(F)cc2)s1 | 64
* O=C(O)c1cc(-c2nn[nH]n2)cs1 | 16

Now examine the next entry.
Please report MIC, K. PNEUMONIAE for the following compound: O=C(O)c1cc(-c2nnn[nH]2)c(C(=O)O)s1
128

====

# maps each entry to its MIC
# Test system: P. vulgaris ATCC 49132
# test.details: Broth microdilution MIC, ATCC strains
# Format: cell-based
# measurement.context: Proteus vulgaris, ATCC49132; P. vulgaris ATCC 49132; read-out: MIC (growth inhibition, microdilution method)

• COC(=O)c1sc(-c2ccc(F)cc2)cc1-c1nnnn1C [DNM-145] = > 4 µg/mL
• CCOC(=O)c1cc(-c2nnn(C)n2)c(-c2ccc(F)cc2)s1 [DNM-125] = > 16 µg/mL
• Cn1nnc(-c2cc(C(=O)O)sc2-c2ccc(F)cc2)n1 [DNM-123] = > 8 µg/mL
• CCOC(=O)c1cc(-c2nnn[nH]2)c(-c2ccc(F)cc2)s1 [DNM-124] = > 64 µg/mL
• Cn1nnc(-c2cc(-c3ccc(F)cc3)sc2C(=O)O)n1 [DNM-142] = > 16 µg/mL
• Fc1ccc(-c2cc(-c3nnn[nH]3)c(-c3ccc(F)cc3)s2)cc1 [DNM-131] = > 32 µg/mL
• O=C(O)c1sc(-c2ccc(F)cc2)cc1-c1nnn[nH]1 [DNM-141] = > 16 µg/mL
• COC(=O)c1cc(-c2nnnn2C)c(C(=O)OC)s1 [DNM-115] = 16 µg/mL
• Cn1nnnc1-c1cc(C(=O)O)sc1C(=O)O [DNM-113] = 16 µg/mL

Now examine the next entry.
Fill in: MIC on P. vulgaris ATCC 49132, entry O=C(O)c1cc(-c2nnn[nH]2)c(-c2ccc(F)cc2)s1 [DNM-121]
64 µg/mL
